- System: Acinetobacter baumannii ATCC 17978
- Measurement Description: Antimicrobial susceptibility testing: 90% growth inhibitory concentration (IC90) determination
- Format: cell-based
- Assay Context: Acinetobacter baumannii, ATCC17978, 16 h, 90% growth inhibitory concentration; Acinetobacter baumannii ATCC17978; Iso-Sensitest broth, OD 600 nm over 16h; read-out: ATCC17978 IC90
- Protocol: Antimicrobial Susceptibility Testing: 90% Growth Inhibitory Concentration (IC90) Determination The in vitro antimicrobial activity of the compounds was determined according to the following procedure: The assay used a 10-points Iso-Sensitest broth medium to measure quantitatively the in vitro activity of the compounds against Acinetobacter baumannii ATCC 17978 and Acinetobacter baumannii ATCC 17961. […]
Where a name gives a salt, the structure may show the parent alone.
Readout: log10 IC90 (log10 of the value in µM)
// do not treat as linear: log10 of IC90, unit µM

Below: 8 compounds and their reported log10 IC90.
Compound	Experimental Target	log10 IC90
N#CCOc1ccc(-c2cnc3c(Nc4ccc(C(=O)NCCc5ccncc5)c(Cl)c4)nccn23)c(F)c1Cl	Acinetobacter baumannii ATCC 17978	-0.57
Cc1cc(Nc2nccn3c(-c4ccc(OC(F)F)cc4)cnc23)ccc1C(=O)N(C)CC1(O)CCNCC1	Acinetobacter baumannii ATCC 17978	0.63
CCc1cc(Nc2nccn3c(-c4ccc(Cl)c(F)c4F)cnc23)ccc1C(=O)NCCCN [Example 229, hydrochloride]	Acinetobacter baumannii ATCC 17978	0.08
COc1ccc(-c2cnc3c(Nc4ccc5c(c4)CCNC5=O)nccn23)c(Cl)c1	Acinetobacter baumannii ATCC 17978	0.23
COc1ccc(-c2cnc3c(Nc4ccc(C(=O)NCC5CCNC5)c(Cl)c4)nccn23)c(F)c1F (stereo not shown)	Acinetobacter baumannii ATCC 17978	-0.66
N#CCOc1ccc(-c2cnc3c(Nc4ccc(C(=O)NCCCN5CCNCC5)c(Cl)c4)nccn23)c(F)c1F	Acinetobacter baumannii ATCC 17978	-1.00
CCc1cc(Nc2nccn3c(-c4ccc(OC)c(F)c4F)cnc23)ccc1C(=O)NCCNC(=O)[C@@H](N)CCN	Acinetobacter baumannii ATCC 17978	-0.42
CCc1cc(Nc2nccn3c(-c4ccc(Oc5ccncn5)c(F)c4F)cnc23)ccc1C(=O)NCCCNC(=O)NCCNCCCN	Acinetobacter baumannii ATCC 17978	-0.52

Q: Field request: log10 IC90 | item: CCc1cc(Nc2nccn3c(-c4ccc(OCC#N)c(F)c4F)cnc23)ccc1C(=O)NCCNC(=O)[C@@H](N)CCCNC(=N)N [Example 124, formate]
Result: -1.05

Q: Field request: log10 IC90 | item: `COc1ccc(-c2cnc3c(Nc4ccc(C(=O)NCCN5CCNCC5)c(Cl)c4)nccn23)cc1F`
Result: -0.57

Q: Field request: log10 IC90 | item: `COc1ccc(-c2cnc3c(Nc4ccc(C(=O)NCCCN)c(CC(F)F)c4)nccn23)c(F)c1F`
Result: 0.32

Q: Field request: log10 IC90 | item: CCc1cc(Nc2nccn3c(-c4ccc(Cl)c(F)c4F)cnc23)ccc1C(=O)NCCNC(=O)[C@H](N)CCCNC(=N)N [Example 130, formate]
Result: -0.19

Q: Field request: log10 IC90 | item: CCc1cc(Nc2nccn3c(-c4ccc(OC)c(F)c4F)cnc23)ccc1C(=O)NCC1CCNCC1 [Example 543, formate]
Result: -1.18
